Biological target: PDE4 enzyme (U937 lysate or recombinant hPDE4)
Construct: cDNA containing PDE4D1 was cloned into a baculovirus vector, insect cells (SF9) were then infected and cells cultured to express the PDE4 protein
Test: In vitro inhibition of PDE4, Method A ([3H]cAMP SPA enzyme assay)
Details: Biological Example 1, Method A
Just a reminder that ties go to No: only IC50 strictly below 500 nM counts as Yes.

compound | test.target | label.class
C=CCC1(CC=C)C[C@@H](c2ccc(OC)c(OC3CCCC3)c2)CNC1=O | PDE4 enzyme (U937 lysate or recombinant hPDE4) | No
COc1ccc([C@H]2CNC(=O)[C@@H](Cc3nc4cc([N+](=O)[O-])ccc4o3)C2)cc1OC1CCCC1 | PDE4 enzyme (U937 lysate or recombinant hPDE4) | No
COc1ccc([C@H]2CNC(=O)/C(=C/c3cccc(C)c3)C2)cc1OC1CCCC1 | PDE4 enzyme (U937 lysate or recombinant hPDE4) | Yes
COc1ccc([C@@H]2CCC(=O)NC2)cc1-c1ccccc1 | PDE4 enzyme (U937 lysate or recombinant hPDE4) | Yes
COc1ccc([C@H]2CNC(=O)C(CC(=O)Nc3cccnc3)C2)cc1OC1CCCC1 (some centres unmarked) | PDE4 enzyme (U937 lysate or recombinant hPDE4) | Yes
C=CCC1C[C@@H](c2ccc(OC)c(OC3CCCC3)c2)CNC1=O (some centres unmarked) | PDE4 enzyme (U937 lysate or recombinant hPDE4) | Yes
COc1ccc([C@H]2CNC(=O)[C@@H](CC3CCOC3)C2)cc1OC1CCCC1 (some centres unmarked) | PDE4 enzyme (U937 lysate or recombinant hPDE4) | No
COc1ccc([C@H]2CNC(=O)C(CCNc3ccccc3)C2)cc1OC1CCCC1 (some centres unmarked) | PDE4 enzyme (U937 lysate or recombinant hPDE4) | Yes
COc1ccc2oc(C[C@H]3C[C@@H](c4ccc(OC)c(OC5CCCC5)c4)CNC3=O)cc2c1 | PDE4 enzyme (U937 lysate or recombinant hPDE4) | Yes
COc1ccc([C@H]2CNC(=O)C(CC(O)CO)C2)cc1OC1CCCC1 (some centres unmarked) | PDE4 enzyme (U937 lysate or recombinant hPDE4) | Yes
COc1ccc([C@H]2CNC(=O)C(CC(=O)O)C2)cc1OC1CCCC1 (some centres unmarked) | PDE4 enzyme (U937 lysate or recombinant hPDE4) | No
COc1ccc([C@@H]2CCC(=O)N(C(=O)c3ccccc3)C2)cc1OC1CCCC1 | PDE4 enzyme (U937 lysate or recombinant hPDE4) | Yes
COc1ccc([C@@H]2CCC(=O)N(Cc3ccccc3)C2)cc1OC1CCCC1 | PDE4 enzyme (U937 lysate or recombinant hPDE4) | Yes
